biological target: Rho-associated protein kinase 1 (Homo sapiens, UniProt Q13464); assay: Inhibition of human ROCK1 in Sf9 cells; assay type: cell-based
Sequence (Q13464 whole entry): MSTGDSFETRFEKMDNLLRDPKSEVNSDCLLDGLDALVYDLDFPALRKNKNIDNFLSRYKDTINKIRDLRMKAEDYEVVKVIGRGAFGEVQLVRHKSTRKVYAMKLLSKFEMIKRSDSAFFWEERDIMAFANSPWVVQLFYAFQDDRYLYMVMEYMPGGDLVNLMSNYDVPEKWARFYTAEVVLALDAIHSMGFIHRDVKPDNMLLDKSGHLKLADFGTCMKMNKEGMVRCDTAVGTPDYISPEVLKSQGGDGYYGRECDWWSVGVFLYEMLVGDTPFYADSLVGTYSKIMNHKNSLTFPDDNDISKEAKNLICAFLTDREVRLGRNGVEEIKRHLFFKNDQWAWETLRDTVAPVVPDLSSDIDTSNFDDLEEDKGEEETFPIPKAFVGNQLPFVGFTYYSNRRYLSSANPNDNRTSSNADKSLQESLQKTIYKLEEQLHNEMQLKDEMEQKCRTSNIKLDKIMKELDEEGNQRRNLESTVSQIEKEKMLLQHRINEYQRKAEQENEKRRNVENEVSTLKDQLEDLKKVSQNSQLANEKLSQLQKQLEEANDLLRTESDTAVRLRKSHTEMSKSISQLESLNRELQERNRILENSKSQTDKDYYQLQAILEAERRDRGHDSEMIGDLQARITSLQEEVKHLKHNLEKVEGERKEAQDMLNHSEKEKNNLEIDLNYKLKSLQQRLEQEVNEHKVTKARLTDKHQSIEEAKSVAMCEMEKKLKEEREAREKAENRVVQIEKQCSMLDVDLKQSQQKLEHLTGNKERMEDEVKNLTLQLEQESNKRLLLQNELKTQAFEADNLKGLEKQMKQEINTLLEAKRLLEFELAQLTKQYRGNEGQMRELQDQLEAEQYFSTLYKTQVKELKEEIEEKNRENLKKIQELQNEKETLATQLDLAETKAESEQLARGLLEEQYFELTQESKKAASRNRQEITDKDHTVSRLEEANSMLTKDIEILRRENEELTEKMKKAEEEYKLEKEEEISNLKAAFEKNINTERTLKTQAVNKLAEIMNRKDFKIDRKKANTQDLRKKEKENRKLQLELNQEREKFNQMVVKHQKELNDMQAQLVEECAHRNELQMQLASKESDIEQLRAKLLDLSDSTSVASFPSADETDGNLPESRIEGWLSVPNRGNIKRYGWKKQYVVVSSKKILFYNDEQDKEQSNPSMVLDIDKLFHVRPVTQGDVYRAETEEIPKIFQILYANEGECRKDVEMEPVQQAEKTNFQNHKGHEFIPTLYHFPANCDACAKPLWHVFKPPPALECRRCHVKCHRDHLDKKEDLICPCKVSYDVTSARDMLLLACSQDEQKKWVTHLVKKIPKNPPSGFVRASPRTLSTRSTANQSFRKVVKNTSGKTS
measured-property: IC50

>  <smiles-representation>
CCn1c(-c2nonc2N)nc2cnc(Oc3cccc(NC(=O)c4ccc(N5CCOCC5)cc4)c3)cc21

>  <IC50>
≤ 1 nM

$$$$

[Q] Give its IC50 value. Item: CCn1c(-c2nonc2N)nc2cnc(Oc3cccc(NC(=O)c4ccc(CN5CCOCC5)cc4)c3)cc21
[A] ≤ 1 nM

[Q] Give its IC50 value. Item: CCn1c(-c2nonc2N)nc2cnc(Oc3cccc(NC(=O)c4ccc(OCCN(C)C)cc4)c3)cc21
[A] ≤ 1 nM
